Data provenance: paper PMC4505863

Target: 5-HT1A (Homo sapiens)
Sequence (P08908 1-422): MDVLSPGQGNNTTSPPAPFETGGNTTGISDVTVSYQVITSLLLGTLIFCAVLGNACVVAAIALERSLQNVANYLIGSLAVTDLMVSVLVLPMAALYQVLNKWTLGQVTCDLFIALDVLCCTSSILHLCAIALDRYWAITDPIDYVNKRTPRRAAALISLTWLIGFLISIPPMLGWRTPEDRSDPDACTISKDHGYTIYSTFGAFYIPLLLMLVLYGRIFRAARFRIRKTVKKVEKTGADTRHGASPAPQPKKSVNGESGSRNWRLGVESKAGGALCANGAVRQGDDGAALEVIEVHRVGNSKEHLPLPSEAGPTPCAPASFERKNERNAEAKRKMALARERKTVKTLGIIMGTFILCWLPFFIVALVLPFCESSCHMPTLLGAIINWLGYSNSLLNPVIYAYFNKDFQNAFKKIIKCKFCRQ
Experiment: PDSP screening affinity 5-HT1A
Assay type: binding
Details: 5-HT1A pKi ± SEM
quantity kind: Ki (nM)
Return type: number; implicit unit nM.

What does the data say about its Ki? Entry: `COc1cccc(CNCCc2c[nH]c3ccc(OC)cc23)c1` 331

* * *

Target: 5-HT7 (Homo sapiens)
Sequence (P34969 whole entry): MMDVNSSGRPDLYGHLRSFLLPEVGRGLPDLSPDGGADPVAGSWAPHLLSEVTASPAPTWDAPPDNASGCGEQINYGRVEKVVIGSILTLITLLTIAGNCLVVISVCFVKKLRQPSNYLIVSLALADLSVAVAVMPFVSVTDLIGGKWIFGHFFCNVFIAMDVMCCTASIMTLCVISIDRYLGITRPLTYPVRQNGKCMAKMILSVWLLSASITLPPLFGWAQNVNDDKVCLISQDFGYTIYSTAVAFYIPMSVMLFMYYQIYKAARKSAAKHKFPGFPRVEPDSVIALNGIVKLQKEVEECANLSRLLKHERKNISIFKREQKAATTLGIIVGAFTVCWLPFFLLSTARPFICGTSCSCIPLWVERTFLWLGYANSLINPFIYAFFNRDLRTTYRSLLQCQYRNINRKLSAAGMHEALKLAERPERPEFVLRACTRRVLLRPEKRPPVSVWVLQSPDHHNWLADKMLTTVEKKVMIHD
Experiment: PDSP screening affinity 5-HT7
Type: binding
Conditions: 5-HT7 pKi ± SEM
quantity kind: Ki (nM)
Express it in nM; write the number only.

>  <item smiles>
COc1ccc2[nH]cc(CCNCc3cccc(Br)c3)c2c1

>  <assay target>
5-HT7 (Homo sapiens)

>  <quantity unit>
nM

>  <Ki>
117

$$$$
>  <item smiles>
COc1ccc2[nH]cc(CCNCc3cccc(I)c3)c2c1

>  <assay target>
5-HT7 (Homo sapiens)

>  <quantity unit>
nM

>  <Ki>
21.9

$$$$

Turning now to a further compound:
Entry `COc1ccc(CNCCc2c[nH]c3ccc(OC)cc23)cc1` has what Ki? 36.3

* * *

Target: 5-ht5a (Homo sapiens, UniProt P47898)
Sequence (P47898 whole entry): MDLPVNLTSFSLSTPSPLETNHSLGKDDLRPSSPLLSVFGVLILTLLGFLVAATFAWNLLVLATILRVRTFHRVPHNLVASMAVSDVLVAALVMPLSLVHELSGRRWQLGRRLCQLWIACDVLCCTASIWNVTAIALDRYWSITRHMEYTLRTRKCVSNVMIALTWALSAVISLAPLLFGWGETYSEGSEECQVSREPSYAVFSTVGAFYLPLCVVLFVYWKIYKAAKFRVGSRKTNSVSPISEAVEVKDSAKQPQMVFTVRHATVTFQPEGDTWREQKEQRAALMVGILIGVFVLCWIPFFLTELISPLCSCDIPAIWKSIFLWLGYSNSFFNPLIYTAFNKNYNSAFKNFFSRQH
Assay: PDSP screening affinity 5-ht5a
Format: binding
Settings: read-out: 5-ht5a affinity
quantity kind: Ki (µM)
The reply should contain only the number, in µM.

Field request: Ki | item: `COc1ccc2[nH]cc(CCNCc3cccc(C)c3)c2c1` 3.85

* * *

Molecular target: 5-HT2B (Homo sapiens)
Assay: PDSP screening affinity 5-HT2B
Type: binding
Conditions: 5-HT2B pKi ± SEM
pKi: −log10 of the molar value.
Parameter threshold = 8. Response is criterion met when pKi meets or exceeds it, else criterion not met.

Completed entries (count: 4):
>  <item smiles>
COc1ccc2[nH]cc(CCNCc3cccc(F)c3)c2c1

>  <qualitative label>
criterion not met

$$$$
>  <item smiles>
COc1ccc2[nH]cc(CCNCc3cccc(Br)c3)c2c1

>  <qualitative label>
criterion met

$$$$
>  <item smiles>
COc1ccc2[nH]cc(CCNCc3ccc(Br)cc3)c2c1

>  <qualitative label>
criterion not met

$$$$
>  <item smiles>
COc1ccc2[nH]cc(CCNCc3ccccc3Br)c2c1

>  <qualitative label>
criterion not met

$$$$

Tell me whether pKi is at least 8 here: `COc1ccc2[nH]cc(CCNCc3cccc(C(F)(F)F)c3)c2c1` criterion not met

* * *

Molecular target: 5-ht1e (Homo sapiens)
Sequence (P28566 whole entry): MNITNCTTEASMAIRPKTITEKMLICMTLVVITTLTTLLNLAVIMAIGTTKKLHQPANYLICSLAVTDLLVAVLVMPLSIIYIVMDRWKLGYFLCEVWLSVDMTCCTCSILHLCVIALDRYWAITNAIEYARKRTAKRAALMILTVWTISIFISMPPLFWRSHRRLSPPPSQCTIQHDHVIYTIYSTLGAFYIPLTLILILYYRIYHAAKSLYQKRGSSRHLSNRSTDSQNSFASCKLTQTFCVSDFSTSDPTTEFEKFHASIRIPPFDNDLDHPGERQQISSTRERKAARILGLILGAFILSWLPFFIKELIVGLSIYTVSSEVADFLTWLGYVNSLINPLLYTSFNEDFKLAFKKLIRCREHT
Test: PDSP screening affinity 5-ht1e
Assay type: binding
Conditions: read-out: 5-ht1e affinity; PDSP screening, human
quantity kind: pKi
Notebook: values listed as pKi are -log10 of the concentration (mol/L).

Any idea what its pKi is? The molecule is `COc1ccc2[nH]cc(CCNCc3cccc(C)c3)c2c1` 5.41

* * *

Target: h5-HT2A (Homo sapiens, UniProt P28223)
Sequence (P28223 whole entry): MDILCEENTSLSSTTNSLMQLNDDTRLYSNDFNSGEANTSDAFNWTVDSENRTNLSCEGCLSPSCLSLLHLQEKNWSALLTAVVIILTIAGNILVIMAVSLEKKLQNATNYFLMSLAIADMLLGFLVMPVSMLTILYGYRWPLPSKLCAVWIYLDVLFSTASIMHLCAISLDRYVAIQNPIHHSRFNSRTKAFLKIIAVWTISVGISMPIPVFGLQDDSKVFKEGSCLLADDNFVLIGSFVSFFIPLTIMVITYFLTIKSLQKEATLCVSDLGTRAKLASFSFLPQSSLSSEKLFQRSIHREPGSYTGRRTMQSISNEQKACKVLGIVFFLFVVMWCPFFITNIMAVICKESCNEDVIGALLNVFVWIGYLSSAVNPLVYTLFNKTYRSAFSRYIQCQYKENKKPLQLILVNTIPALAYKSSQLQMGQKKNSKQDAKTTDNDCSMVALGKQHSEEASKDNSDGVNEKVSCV
Test: Ca2+ mobilization assay
Format: cell-based
Details: read-out: h5-HT2A EC50; Ca2+ mobilization
quantity kind: EC50 (nM)
# number only, unit nM dropped from output

For COc1ccc2[nH]cc(CCNCc3cccc(C)c3)c2c1 [Compound 5j] , what is its reported EC50? 6.5

* * *

Molecular target: 5-ht5a (Homo sapiens, UniProt P47898)
Assay: PDSP screening affinity 5-ht5a
Assay type: binding
Settings: 5-ht5a affinity
Rule: measured Ki below 1 µM gets rule met; anything equal to or greater than 1 µM gets rule not met.

>  <item smiles>
COc1ccc2[nH]cc(CCNCc3cccc(F)c3)c2c1

>  <assay target>
5-ht5a (Homo sapiens, UniProt P47898)

>  <qualitative label>
rule not met

$$$$
>  <item smiles>
COc1cccc(CNCCc2cc(OC)c(I)cc2OC)c1

>  <assay target>
5-ht5a (Homo sapiens, UniProt P47898)

>  <qualitative label>
rule met

$$$$
>  <item smiles>
COc1ccc2[nH]cc(CCNCc3cccc(Cl)c3)c2c1

>  <assay target>
5-ht5a (Homo sapiens, UniProt P47898)

>  <qualitative label>
rule not met

$$$$
>  <item smiles>
COc1ccc2[nH]cc(CCNCc3ccccc3OC)c2c1

>  <assay target>
5-ht5a (Homo sapiens, UniProt P47898)

>  <qualitative label>
rule not met

$$$$
>  <item smiles>
COc1cc(CCNCc2ccccc2Br)c(OC)cc1I

>  <assay target>
5-ht5a (Homo sapiens, UniProt P47898)

>  <qualitative label>
rule not met

$$$$
>  <item smiles>
COc1ccc2[nH]cc(CCNCc3cccc(Br)c3)c2c1

>  <assay target>
5-ht5a (Homo sapiens, UniProt P47898)

>  <qualitative label>
rule met

$$$$
>  <item smiles>
COc1ccc2[nH]cc(CCNCc3cccc(C(F)(F)F)c3)c2c1

>  <assay target>
5-ht5a (Homo sapiens, UniProt P47898)

>  <qualitative label>
rule not met

$$$$
>  <item smiles>
COc1cc(CCNCc2ccccc2OC)c(OC)cc1I

>  <assay target>
5-ht5a (Homo sapiens, UniProt P47898)

>  <qualitative label>
rule not met

$$$$
>  <item smiles>
COc1ccc2[nH]cc(CCNCc3ccccc3Br)c2c1

>  <assay target>
5-ht5a (Homo sapiens, UniProt P47898)

>  <qualitative label>
rule not met

$$$$
>  <item smiles>
COc1ccc2[nH]cc(CCNCc3cccc(SC)c3)c2c1

>  <assay target>
5-ht5a (Homo sapiens, UniProt P47898)

>  <qualitative label>
rule met

$$$$

Given the entry `COc1ccc2[nH]cc(CCNCc3cccc(I)c3)c2c1` , would its reported Ki be below 1 µM? rule not met

Would you mind doing `COc1cc(CCNCc2ccc(Br)cc2)c(OC)cc1I` as well? rule not met

Now give it for `COc1ccc2[nH]cc(CCNCc3ccc(Br)cc3)c2c1` too. rule not met

Would you kindly repeat that for `COc1ccc(CNCCc2c[nH]c3ccc(OC)cc23)cc1` ? rule not met

Next: `COc1cccc(CNCCc2c[nH]c3ccc(OC)cc23)c1` rule not met

* * *

Target: 5-HT2B (Homo sapiens, UniProt P41595)
Sequence (P41595 whole entry): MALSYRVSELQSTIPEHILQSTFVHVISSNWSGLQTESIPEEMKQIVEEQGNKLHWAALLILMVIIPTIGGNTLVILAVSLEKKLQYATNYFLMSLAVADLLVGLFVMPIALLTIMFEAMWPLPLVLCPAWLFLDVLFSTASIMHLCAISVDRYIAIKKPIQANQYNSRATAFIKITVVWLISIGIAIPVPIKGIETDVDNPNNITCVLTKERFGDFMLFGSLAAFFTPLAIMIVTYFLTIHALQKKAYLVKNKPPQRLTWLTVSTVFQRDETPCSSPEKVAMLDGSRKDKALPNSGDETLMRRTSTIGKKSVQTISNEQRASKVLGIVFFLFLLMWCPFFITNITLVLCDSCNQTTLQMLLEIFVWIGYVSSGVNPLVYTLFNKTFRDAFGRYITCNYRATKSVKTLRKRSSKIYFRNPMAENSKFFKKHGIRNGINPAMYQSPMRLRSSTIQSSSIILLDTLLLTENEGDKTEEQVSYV
Experiment: PDSP screening affinity 5-HT2B
Assay type: binding
Details: 5-HT2B affinity
quantity kind: pKi
pKi here is simply -log10 of the concentration when that concentration is written in mol/L.

Entry COc1ccc2[nH]cc(CCNCc3cccc(Br)c3)c2c1 [Compound 5e] has what pKi? 8.44

* * *

Biological target: r5-HT2A (Rattus norvegicus)
Sequence (P14842 whole entry): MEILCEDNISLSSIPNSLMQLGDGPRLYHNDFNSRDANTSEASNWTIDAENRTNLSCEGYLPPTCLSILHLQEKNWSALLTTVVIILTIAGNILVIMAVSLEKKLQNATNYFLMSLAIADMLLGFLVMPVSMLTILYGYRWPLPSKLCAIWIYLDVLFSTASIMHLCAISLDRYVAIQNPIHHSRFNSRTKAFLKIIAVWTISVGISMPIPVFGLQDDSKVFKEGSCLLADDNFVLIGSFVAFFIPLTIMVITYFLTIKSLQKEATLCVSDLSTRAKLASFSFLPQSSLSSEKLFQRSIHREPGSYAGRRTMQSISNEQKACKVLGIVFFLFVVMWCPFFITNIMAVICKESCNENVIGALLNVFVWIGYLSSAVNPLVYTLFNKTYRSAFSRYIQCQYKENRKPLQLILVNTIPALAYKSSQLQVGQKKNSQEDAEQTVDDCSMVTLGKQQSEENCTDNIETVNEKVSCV
Assay: Ca2+ mobilization assay
Assay type: cell-based
Details: read-out: r5-HT2A EC50; Ca2+ mobilization
quantity kind: pEC50
Interpret pEC50 as the negative base-10 log of the concentration measured in mol/L.

Recorded pEC50 of COc1ccc2[nH]cc(CCNCc3cccc(C)c3)c2c1 [Compound 5j] , please. 7.59

* * *

Target: 5-HT6 (Homo sapiens, UniProt P50406)
Sequence (P50406 whole entry): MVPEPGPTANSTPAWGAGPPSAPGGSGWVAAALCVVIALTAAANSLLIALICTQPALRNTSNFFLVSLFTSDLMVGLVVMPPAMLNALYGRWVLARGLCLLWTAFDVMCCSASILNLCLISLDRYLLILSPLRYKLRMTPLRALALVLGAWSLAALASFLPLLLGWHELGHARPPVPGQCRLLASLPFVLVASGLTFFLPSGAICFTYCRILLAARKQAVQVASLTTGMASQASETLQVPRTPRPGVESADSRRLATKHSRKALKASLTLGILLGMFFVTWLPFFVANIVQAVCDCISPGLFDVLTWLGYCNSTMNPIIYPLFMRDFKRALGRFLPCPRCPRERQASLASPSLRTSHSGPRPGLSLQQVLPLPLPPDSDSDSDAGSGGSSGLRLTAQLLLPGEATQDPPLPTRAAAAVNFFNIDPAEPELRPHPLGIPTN
Test: PDSP screening affinity 5-HT6
Format: binding
Conditions: 5-HT6 pKi ± SEM
quantity kind: Ki (nM)
Write the answer as a number in nM, unit excluded.

>  <item smiles>
COc1ccc2[nH]cc(CCNCc3cccc(I)c3)c2c1

>  <assay target>
5-HT6 (Homo sapiens, UniProt P50406)

>  <quantity unit>
nM

>  <Ki>
26.3

$$$$

Let's switch to this compound now.
Consider the compound `COc1ccc2[nH]cc(CCNCc3cccc(Br)c3)c2c1` and give its measured Ki. 45.7

* * *

Target: r5-HT2C (Rattus norvegicus)
Sequence (P08909 33-460): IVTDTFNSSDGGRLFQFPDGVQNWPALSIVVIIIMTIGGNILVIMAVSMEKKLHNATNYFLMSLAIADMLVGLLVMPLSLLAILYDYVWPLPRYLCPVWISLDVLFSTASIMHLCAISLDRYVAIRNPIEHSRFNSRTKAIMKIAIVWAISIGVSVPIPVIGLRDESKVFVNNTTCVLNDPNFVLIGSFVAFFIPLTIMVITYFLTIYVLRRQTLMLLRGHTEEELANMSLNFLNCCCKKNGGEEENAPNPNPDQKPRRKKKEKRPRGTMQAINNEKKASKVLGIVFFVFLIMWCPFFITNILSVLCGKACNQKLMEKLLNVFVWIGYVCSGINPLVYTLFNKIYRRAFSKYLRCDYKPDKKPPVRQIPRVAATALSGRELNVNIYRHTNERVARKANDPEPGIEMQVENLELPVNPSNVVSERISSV
Assay: Ca2+ mobilization assay
Format: cell-based
Conditions: r5-HT2C pEC50 ± SEM, Ca2+ mobilization
quantity kind: EC50 (nM)
API: value field is a number in nM; no unit string.

Consider the reported EC50 for these molecules:
>  <molecule>
COc1ccc2[nH]cc(CCNCc3ccccc3OC)c2c1 [Compound 5a]

>  <quantity unit>
nM

>  <EC50>
16.2

$$$$
>  <molecule>
COc1ccc2[nH]cc(CCNCc3cccc(Br)c3)c2c1 [Compound 5e]

>  <quantity unit>
nM

>  <EC50>
417

$$$$

Find the recorded EC50 belonging to COc1cc(CCNCc2cccc(Br)c2)c(OC)cc1I [Compound 4d] and report it. 36.3

And then COc1ccc(CNCCc2c[nH]c3ccc(OC)cc23)cc1 [Compound 5c] , what is it? 18.6

Next entry: COc1cccc(CNCCc2c[nH]c3ccc(OC)cc23)c1 [Compound 5b] 166

Queued: COc1ccc2[nH]cc(CCNCc3cccc(I)c3)c2c1 [Compound 5i] 309
